method.description: Saturation mutagenesis of SEQ ID NO:109: dicamba decarboxylation activity of point mutants (CO2 released), fold of backbone (Tables 7, 8, Megatable 1)
stated.conditions: decarboxylation activity (CO2 released) of point mutant vs unmutated backbone protein; backbone SEQ ID NO: 109
assay.readout: Fold Activity (fold)
Record the value in fold, omitting the unit from your answer.

[Q] Can you look up the measured Fold Activity of 144 (protein, Dicamba decarboxylase variant) MAQGKVALEEHFAIPETLQDSAGFVPGDYWKELQHRLLDIQDTRLRLMDAHGIETMILSLAAPAVQAIPDRRKAIEIARRANDFLAEECAKRPDRFLAFAALPLQDPDAASEELQRCVNDLGFVGALVNGFSQEGDGQTPLYYDLPQYRPFWGEVEKLDVPFYLHPRNPLPQDSRIYDGHPWLLGPTWAFAQETAVHALRLMASGLFDEHPRLNIILGHMGEGLPYMMYRIDHRIAWVHEPPRYPAKRRFMDYFNENFHITTSGNFRTQTLIDAILEIGADRILFSTDWPFENIDHAADWFNATSIAEADRLKIGRTNARRLFKLDGD for me?
[A] 1.2

[Q] Can you look up the measured Fold Activity of 89 (protein, listed as Erwinia billingiae) MATNRRDFLKNATAVMAGSTVFAGSSHFASAAAVEPAAVQPPRRIIALEEHFMLPEFVGYLHETQQNLRNGLVDKVVTPLSDFGKGRLEIMDKNGVDFAVLSLSGPGVQAEPDRVKAVRLARYANDKLATEMQKNPRRYGGFAHLAMQDPLAAANELERCVKQLHMQGGMINGETDGLYLDDRRYDVFWERVEALNVPIYIHPGNPPDYPHMFAGHPEMWGPVWSWAVETCSHALRLIFSGTFDRYPGARVILGHMGETLPIQLWRLDSRYQIANQTFAIKHPPSWYAKKNITITTSGVCNDAALRCALDSMGSENVMFSIDYPFESTEIAVNWLKTANITEQERNAVAWGNATSILRLGA for me?
[A] 3.1
